# TEST: Biodistribution of the 99mTc(N) heterocomplexes in rats (organ uptake, heart accumulation, heart/lung and heart/liver ratios)
# Format: in vivo, female Sprague-Dawley rats
# PARTICULARS: 60 min post injection
Biodistribution in rats: Liver values by entry
Answer with a number only, understood to be in % dose/g.

>>> measurement("CCOCCN1CC[P](CCCOC)(CCCOC)[99Tc+]2(#[N])([S]C(N(CCOCC)C(C)C)=[S]2)[P](CCCOC)(CCCOC)CC1 [[^99mTc(N) (PNP5) (ISOET)]^+]")
0.43

Shifting focus to the molecule that follows.
Biodistribution in rats: Liver for CCOCCN1CC[P](CCCOC)(CCCOC)[99Tc+]2(#[N])([S]C(N(CCOCC)CCOCC)=[S]2)[P](CCCOC)(CCCOC)CC1 [[^99mTc(N) (PNP5) (DBODC)]^+] ?
0.20
